# assayedTarget: native soluble IL-6R in human plasma (human, UniProt P08887)
# measurementNotes: ELISA 3, periplasmic extract; competitor BN-12; human plasma

| binder | OD450 ratio sample/blank |
| --- | --- |
| IL6RPMP101F3 (VHH) VHH: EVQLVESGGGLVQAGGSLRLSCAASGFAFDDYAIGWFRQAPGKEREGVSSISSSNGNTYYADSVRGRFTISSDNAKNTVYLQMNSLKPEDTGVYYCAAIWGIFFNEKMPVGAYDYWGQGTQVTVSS | 0.984 |
| IL6RPMP107A9 (VHH) VHH: EVQLVESGGGLVQAGGSLRLSCAASGGIFSDMFMGWFRQAPGKSRESVARISPSGNTFYQDSVRGRFTISTDNAKNTVYLQMNNLKPEDTAVYYCAANVGVTGSYEYWGQGTQVTVSS | 0.992 |
| IL6RPMP106F7 (VHH) VHH: EVQLVESEGGLVQAGGSLRLSCAASGSIFRINAMGWYRQAPGKQRELVAAAISGGSTNYADFVKGRFTISRDNAKNTVYLQMNSLKPEDTAVYYCNALVVSHNYSDYVPFPDDYWGQGTQVTVSS | 1 |
| IL6RPMP104A8 (VHH) VHH: EVQLVESGGGLVQAGGSLRLSCTASGRTFSDYDMGWFRQAPGKEREFVAVIDTNGGHTLTVGSVKGRFAISSDNAKNTVYLQMNSLVPEDTAVYTCAAGAWSSLRKTAASYWGQGTQVTVSS | 0.973 |
